Assay: Encapsulation efficiency of the lipid nanoparticle (eGFP mRNA) by Ribogreen method
Assay type: physicochemical
Conditions: LNP encapsulating eGFP mRNA, ionizable lipid/DOPE/cholesterol/DMG-PEG2000 50/10/48.25/1.25 mol%, N/P 12
metric: Encapsulation rate, % (%)
Give the value in % but do not write % after it.

Reference set, count: 4
CCCCCCCCCCCCCOC(=O)CCCCCN(CCCCO)CCCN(CCCCCC(=O)OCCCCCCCCCCCCC)CCCCCC(=O)OCCCCCCCCCCCCC
99.36
CCCCC/C=C\C/C=C\CCCCCCCCOC(=O)CCCN(CCCO)CCCCN(CCCC(=O)OCCCCCCCC/C=C\C/C=C\CCCCC)CCCC(=O)OCCCCCCCC/C=C\C/C=C\CCCCC [Example 104]
95.12
CCCCCCCCCCCCOC(=O)CCCCCN(CCCO)CCCN(CCCCCC(=O)OCCCCCCCCCCCC)CCCCCC(=O)OCCCCCCCCCCCC
99.60
CCCCCCCCCCCOC(=O)CCCCN(CCO)CCCN(CCCCC(=O)OCCCCCCCCCCC)CCCCC(=O)OCCCCCCCCCCC [Example 107]
95.47

Exam item: Item under review: CCCCCCCCCCCOC(=O)CCN(CCO)CCCN(CCC(=O)OCCCCCCCCCCC)CCC(=O)OCCCCCCCCCCC . Reported Encapsulation rate, %?
Marked response: 66.08

Exam item: And for CCCCCCCCCCOC(=O)CCCN(CCCO)CCCN(CCCC(=O)OCCCCCCCCCC)CCCC(=O)OCCCCCCCCCC ?
Marked response: 91.23
